# system_under_test: L-lactate dehydrogenase (Plasmodium falciparum (isolate CDC / Honduras)) (UniProt Q27743)
# Sequence (Q27743 whole entry, looked up): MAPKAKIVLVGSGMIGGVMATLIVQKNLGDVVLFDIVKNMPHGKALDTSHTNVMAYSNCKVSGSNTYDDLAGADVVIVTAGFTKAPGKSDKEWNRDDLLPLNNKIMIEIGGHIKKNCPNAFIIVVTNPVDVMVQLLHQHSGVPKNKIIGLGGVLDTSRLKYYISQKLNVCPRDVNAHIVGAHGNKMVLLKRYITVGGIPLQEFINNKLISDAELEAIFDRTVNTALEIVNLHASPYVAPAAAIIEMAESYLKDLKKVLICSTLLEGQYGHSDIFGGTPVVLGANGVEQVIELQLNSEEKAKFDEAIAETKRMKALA
# test_method_notes: PfLDH activity inhibition – cell lysate, 3D7 strain, counter-screen for P. falciparum growth inhibition project (AID 2304);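 note: 0% = vehicle and 100% = reference inhibitor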
# measurement_conditions: P. falciparum 3D7 crude extract, LDH APAD/NBT absorbance; at 2 µM; stronger effect = higher value
Each item that follows carries a reported inhibition.

compound: O=S(=O)(NCCN1CCCC1)c1cccc(-c2cccc(CNCCc3cccs3)c2)c1
measurement_unit: %
inhibition: 0
//
compound: NS(=O)(=O)c1cccc(N=Cc2c(O)[nH]c3ccc(S(=O)(=O)Cc4c(Cl)cccc4Cl)cc23)c1
measurement_unit: %
inhibition: 4
//
compound: Cc1cccc2[nH]c(-c3ccc(-c4ccc(CN5CCCC(O)C5)cc4)s3)nc12 (centres undefined)
measurement_unit: %
inhibition: -1
//
compound: Cc1cccc(Cn2ccc3c4c(N)nc(N)nc4ccc32)c1
measurement_unit: %
inhibition: 1
//
compound: CCN(CC)c1nc(N)c2c(N)nc3c(c2c1C#N)C(=O)CN3Cc1ccccc1
measurement_unit: %
inhibition: -3
//
compound: CN(C)CCNCc1cccc(-c2ccc3c(Nc4ccc(Oc5ccccn5)cc4)ccnc3c2)c1
measurement_unit: %
inhibition: 2
//
compound: CCc1cn2c3c(cc(C(=O)N[C@@H](Cc4ccccc4)[C@H](O)CNCc4ccccc4C)cc13)N(C)S(=O)(=O)CC2
measurement_unit: %
inhibition: 5
//
compound: COc1ccc(CNCc2ccc(-c3ccc(-c4nc5ccc(C(F)(F)F)cc5[nH]4)s3)cc2)cc1
measurement_unit: %
inhibition: -1
//
compound: O=C(/C=C/c1ccc(Cl)c(Cl)c1)NCCCCCCN1CCCN(C(=O)Nc2ccc(F)c(Cl)c2)CC1
measurement_unit: %
inhibition: 0

----------
# system_under_test: L-lactate dehydrogenase (Plasmodium falciparum (isolate CDC / Honduras)) (UniProt Q27743)
# test_method_notes: PfLDH activity inhibition – cell lysate, 3D7 strain, counter-screen for P. falciparum growth inhibition project (AID 2304);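 note: 0% = vehicle and 100% = reference inhibitor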
# measurement_conditions: P. falciparum 3D7 crude extract, LDH APAD/NBT absorbance; at 2 µM; stronger effect = higher value
A collection of compounds and their measured inhibition
observation_type: inhibition (%)

compound: CC1(C)N=C(N)N=C(N)N1c1ccc(Oc2ccccc2)cc1
system_under_test: L-lactate dehydrogenase (Plasmodium falciparum (isolate CDC / Honduras)) (UniProt Q27743)
observation_type: inhibition
value: -6
--
compound: CCCCCCCCOc1ccc(N2C(N)=NC(N)=NC2(C)C)cc1
system_under_test: L-lactate dehydrogenase (Plasmodium falciparum (isolate CDC / Honduras)) (UniProt Q27743)
observation_type: inhibition
value: -4
--
compound: COc1ccc(CNC(=O)Nc2cccc(-c3csc(N=C(N)N)n3)c2)cc1
system_under_test: L-lactate dehydrogenase (Plasmodium falciparum (isolate CDC / Honduras)) (UniProt Q27743)
observation_type: inhibition
value: 1
--
compound: O=C(Cc1cc(F)cc(F)c1)NC1CCN(c2ccnc3cc(Cl)ccc23)C1 (stereo not given)
system_under_test: L-lactate dehydrogenase (Plasmodium falciparum (isolate CDC / Honduras)) (UniProt Q27743)
observation_type: inhibition
value: 0
--
compound: COc1c(CN2CCOCC2)cccc1-c1cc2c(-c3ccc(C(=O)O)c(C(C)C)c3)ccnc2[nH]1
system_under_test: L-lactate dehydrogenase (Plasmodium falciparum (isolate CDC / Honduras)) (UniProt Q27743)
observation_type: inhibition
value: -3

----------
Below, each entry is listed with its recorded inhibition.
# test_method_notes: HD-MB03 medulloblastoma cell growth inhibition, synergistic combos for chromothripsis tumors, BGB or cisplatin IC20 combos (AID 1671455);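 note: 0% = vehicle DMSO and 100% = high DMSO as cytotoxic control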
# measurement_conditions: HD-MB03 medulloblastoma cells, measured here: combo with cisplatin at IC20, at 0.5 µM, stronger effect = higher value

compound: Cc1c(-c2cnccn2)ssc1=S
inhibition: -23%
--
compound: CO[C@H]1/C=C/O[C@@]2(C)Oc3c(C)c(O)c4c(O)c(c(C=NN5CCN(C)CC5)c(O)c4c3C2=O)NC(=O)/C(C)=C\C=C\[C@H](C)[C@H](O)[C@@H](C)[C@@H](O)[C@@H](C)[C@H](OC(C)=O)[C@@H]1C
inhibition: -3.79%
--
compound: O=c1[nH]c(-c2ccc(C(F)(F)F)cc2)nc2c1CSCC2
inhibition: -8.24%
--
compound: NC(=O)c1ncn(C2OC(CO)C(O)C2O)n1 (stereo unspecified)
inhibition: -10.7%
--
compound: CC(C)N=c1cc2n(-c3ccc(Cl)cc3)c3ccccc3nc-2cc1Nc1ccc(Cl)cc1
inhibition: -18.6%
--
compound: O=C(Nc1ccccc1)c1ccccc1O
inhibition: -2.6%

----------
# test_method_notes: inhibition of 3D7 malaria parasite growth – strain 3D7 (AID 2306);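 note: 0% = DMSO wells and 100% = chloroquine plus artemisinin control wells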
# measurement_conditions: P. falciparum 3D7 erythrocytic growth, LDH absorbance, 72 h; at 2 µM; stronger effect = higher value
observation_type: growth inhibition (%)

compound: CO/N=C(\C)c1ccc2c(c1)CCN(CCC1CCC(NC(=O)c3cccc(-c4noc(C)n4)c3)CC1)CC2 (stereo not given)
measurement_unit: %
value: 90
//
compound: Cc1cc(OCCCN2CCCC2)ccc1NC(=O)COc1ccc(Cl)cc1C(=O)c1cc(C#N)cc(C(F)(F)F)c1
measurement_unit: %
value: 85
//
compound: CCCCNCc1cc(Cl)c2ccccc2c1O
measurement_unit: %
value: 102
//
compound: COc1cc(Cc2cnc(N)nc2N)cc(OCCCC#N)c1OC
measurement_unit: %
value: 86
//
compound: Cc1ccc(Cn2ccc3c4c(N)nc(N)nc4ccc32)cc1
measurement_unit: %
value: 99

----------
# test_method_notes: inhibition of 3D7 malaria parasite growth – strain 3D7 (AID 2306);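 note: 0% = DMSO wells and 100% = chloroquine plus artemisinin control wells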
# measurement_conditions: P. falciparum 3D7 erythrocytic growth, LDH absorbance, 72 h; at 2 µM; stronger effect = higher value
observation_type: growth inhibition (%)

compound: CCC(CC)OC(=O)C(C)c1cccc(C(=O)c2ccccc2)c1 (stereo not given)
value: 93
//
compound: CN(C)CCNCc1nc(-c2ccc3c(Nc4ccc(Oc5ccccc5)cc4)ccnc3c2)cs1
value: 101
//
compound: CC(NC(=O)c1ccc(O)c(-c2ccc(Cl)c(Cl)c2)c1)C(=O)NCCN1CCCCC1 (stereo not given)
value: 97
//
compound: NCCNS(=O)(=O)c1ccc(-c2ccnc3[nH]c(-c4ccncc4)cc23)cc1
value: 96
//
compound: OC(CNCc1cccc(Oc2ccc(Cl)cc2)c1)c1cccc(C(F)(F)F)c1 (stereo not given)
value: 94
//
compound: COc1cc(NC(=O)c2nn(CCCN3CCC(N4CCCC4)CC3)cc2-c2ccc(Cl)c(Cl)c2)cc(OC)c1OC
value: 103
//
compound: Oc1cc(-c2nc(C3(CNCc4ccc(Cl)cc4)CCCCC3)[nH]c2-c2ccncc2)ccc1Cl
value: 100
//
compound: O=C(Nc1ccc(CN2CCOCC2)cc1)c1ccc(-c2ccc(Br)cc2)o1
value: 92
//
compound: Cc1nc(-c2cccc(Nc3ccnc4cc(-c5nccs5)ccc34)c2)no1
value: 99
//
compound: C(=Cc1ccccc1)C=NNc1ccnc2ccccc12
value: 100
//
compound: N=C(N)c1ccc2[nH]c(-c3cc4cc(C(=N)N)ccc4o3)cc2c1
value: 94
//
compound: Cn1cc(-c2ccnc3[nH]c(-c4cccc(CNC5CCC(O)CC5)c4)cc23)cn1 (stereo not given)
value: 95
//
compound: Nc1cc2c(C3CCN(CC4CCN(C(=O)/C=C/c5ccc(Cl)c(Cl)c5)CC4)CC3)c[nH]c2cn1
value: 101
//
compound: N#Cc1ccc2c(c1)CCN(CCC1CCC(NC(=O)c3ccc(-c4ccccn4)s3)CC1)CC2 (stereo not given)
value: 92
//
compound: CCN(C)C(=O)n1ncc2c3c(N)nc(N)nc3ccc21
value: 95
//
compound: Nc1ncc(-c2cccc(F)c2)cc1-c1nc2ccc(F)cc2[nH]1
value: 100
//
compound: Cc1cccc2[nH]c(-c3ccc(-c4cccc(CN5CCN(CCN6CCOCC6)CC5)c4)s3)nc12
value: 101
//
compound: NC1(C(=O)O)Cc2ccc(Cl)cc2C1 (stereo not given)
value: 93
//
compound: Nc1ncc(-c2cn[nH]c2)cc1-c1nc2ccc(Cl)cc2[nH]1
value: 101
//
compound: CC(C)(CNCc1ccccc1)c1nc(-c2ccc(Cl)c(O)c2)c(-c2ccncc2)[nH]1
value: 101
//
compound: CN(C)Cc1ccc(-c2ccc3c(Nc4ccc(Oc5ccccn5)cc4)ccnc3c2)o1
value: 101
//
compound: CN1CCN(CCCNCc2cccc(Nc3nccc(Nc4ccc(Oc5ccccc5)cc4)n3)c2)CC1
value: 100
//
compound: CN(CCN1CCC(c2c[nH]c3ccccc23)CC1)c1ccc(-c2nc3cc(Cl)c(Cl)cc3[nH]2)cc1
value: 101
//
compound: CCCNCc1ccc(-c2ccc(CN(C(=O)c3nn(-c4ccccc4)nc3C)C3CC3)cc2)nc1
value: 101
//
compound: Cc1ccc(-c2nc3ccc(C(=O)NC4CCN(Cc5ccccc5)CC4)cc3[nH]2)cc1
value: 100
//
compound: CCCCCCN1CCCN(Cc2cccc(NC(=O)c3cc4ccccc4s3)c2)CC1
value: 88
//
compound: Cc1cccc2[nH]c(-c3cccc(-c4cccc(NC(=O)CCc5cnc[nH]5)c4)c3)nc12
value: 102
//
compound: CCn1ccc2c(N3CCCCS3(=O)=O)cc(C(=O)N[C@@H](Cc3ccccc3)[C@H](O)CNC(C)(C)c3cccc(C(F)(F)F)c3)cc21
value: 97
//
compound: FC(F)(F)c1cccc(NC(=S)NN=Cc2ccccn2)c1
value: 100
//
compound: Clc1ccccc1C=NNc1ccnc2ccccc12
value: 100
//
compound: CC(C)CC(=O)N1CCNC[C@@H]1C(=O)NCCSCc1c(F)cccc1Cl
value: 86
//
compound: Nc1nc(Cc2ccc(Cl)cc2)nc(Cc2ccc(Cl)cc2)n1
value: 85
//
compound: Cc1cccc(C)c1NC1=NC(=S)N(c2cccc(Cl)c2)C12CCC(C(C)(C)C)CC2 (stereo not given)
value: 87
//
compound: Cc1cc(N2CCCC2)nc(Nc2ccc(NC(=O)C3CCCC3)cc2)n1
value: 102
//
compound: Cc1ccnc(NC(c2ccc(Cl)c([N+](=O)[O-])c2)c2ccc3cccnc3c2O)c1 (stereo not given)
value: 89
//
compound: CC(Oc1ccc(Cl)cc1)C(=O)Nc1cc(C(F)(F)F)ccc1N1CCOCC1 (stereo not given)
value: 97
//
compound: COc1cc(Cc2cnc(N)nc2N)cc(OCCCCCCN)c1OC
value: 96
//
compound: CCN(CC)CCNC(=O)c1ccc(N=Cc2c(O)[nH]c3ccc(S(=O)(=O)Cc4c(Cl)cccc4Cl)cc23)cc1
value: 100
//
compound: COc1ccc2ncc(Cl)c([C@H](O)CN3CCC(NCc4cc5c(cn4)OCCO5)CC3)c2c1
value: 100
//
compound: COc1ccc(Nc2ncc(C#N)c(Nc3ccccc3C(N)=O)n2)cc1N1CCN(C)CC1
value: 93

Just for reference, PubChem BioAssay is where these values come from.
